Where do these numbers come from? They come from patent US20100010002A1.

Exercise: state measured GI50 for each of the compounds provided.
experimental system: Ba/F3 Bcr-Abl/Y253H (Homo sapiens, UniProt P00519, Y253H, cells depend on it)
Construct: fused on or other part: P11274 (Breakpoint cluster region protein)
method: CCK-8 assay, Ba/F3 Bcr-Abl/Y253H
Format: cell-based
Field: numeric (µM). Do not append units.

Lookup: Query: GI50; subject: "O=C(C=Cc1ccc(O)c(O)c1)N1CCN(Cc2ccccc2)CC1"
Found: 2.5

Lookup: Query: GI50; subject: "O=C(C=Cc1ccc(O)c(O)c1)N1CCC(Cc2ccccc2)CC1"
Found: 1

---

experimental system: Ba/F3 Bcr-Abl/Y253F (Homo sapiens, UniProt P00519, Y253F, cells depend on it)
Construct: fused on or other part: P11274 (Breakpoint cluster region protein)
method: CCK-8 assay, Ba/F3 Bcr-Abl/Y253F
Format: cell-based
Exercise: state measured GI50 for each of the compounds provided.
Field: numeric (µM). Do not append units.

Lookup: Query: GI50; subject: O=C(C=Cc1ccc(O)c(O)c1)N1CCN(Cc2ccccc2)CC1 [Compound 10]
Found: 1.1

Lookup: Query: GI50; subject: O=C(C=Cc1ccc(O)c(O)c1)N1CCC(Cc2ccccc2)CC1 [Compound 19]
Found: 1

---

experimental system: Ba/F3 Bcr-Abl/M244V (Homo sapiens, UniProt P00519, M244V, cells depend on it)
Construct: fused on or other part: P11274 (Breakpoint cluster region protein)
method: CCK-8 assay, Ba/F3 Bcr-Abl/M244V
Format: cell-based
experimental context: mouse, 72 h
result type: GI50 (µM)
Field: numeric (µM). Do not append units.

Lookup: Query: GI50; subject: "COC(=O)C=Cc1ccc(O)c(O)c1"
Found: 30.1

Lookup: Query: GI50; subject: "CC(C)OC(=O)C=Cc1ccc(O)c(O)c1"
Found: 9.8

Lookup: Query: GI50; subject: "CCCOC(=O)C=Cc1ccc(O)c(O)c1"
Found: 3

Lookup: Query: GI50; subject: "CCOC(=O)C=Cc1ccc(O)c(O)c1"
Found: 15.2

---

experimental system: Ba/F3 Bcr-Abl/T315I (Homo sapiens, UniProt P00519, T315I, cells depend on it)
experimental context: read-out: Inhibitory concentration (IC50), Ba/F3 Bcr-Abl/T315I; CCK-8, 72 h, imatinib mesylate resistant; Table 4
Friendly reminder: GI50 below 2 µM is fulfilled, at or above is not fulfilled.

Lookup: API: query returns whether the molecule falls strictly under 2 µM in GI50. Query: CCOC(=O)C=Cc1ccc(O)c(O)c1 [Compound 3]
Found: not fulfilled

Lookup: API: query returns whether the molecule falls strictly under 2 µM in GI50. Query: O=C(O)/C=C/c1ccc(O)c(O)c1 [Compound 1]
Found: not fulfilled

Lookup: API: query returns whether the molecule falls strictly under 2 µM in GI50. Query: CN1CCC(N2CCN(C(=O)/C=C/c3ccc(O)c(O)c3)CC2)CC1 [Compound 12]
Found: not fulfilled

Lookup: API: query returns whether the molecule falls strictly under 2 µM in GI50. Query: CCN1CCN(C(=O)C=Cc2ccc(O)c(O)c2)CC1 [Compound 9]
Found: not fulfilled

Lookup: API: query returns whether the molecule falls strictly under 2 µM in GI50. Query: CC(C)NC(=O)/C=C/c1ccc(O)c(O)c1 [Compound 18]
Found: not fulfilled

Lookup: API: query returns whether the molecule falls strictly under 2 µM in GI50. Query: O=C(/C=C/c1ccc(O)c(O)c1)N1CCN(c2ccccc2)CC1 [Compound 13]
Found: not fulfilled

Lookup: API: query returns whether the molecule falls strictly under 2 µM in GI50. Query: O=C(C=Cc1ccc(O)c(O)c1)N1CCN(Cc2ccccc2)CC1 [Compound 10]
Found: not fulfilled

Lookup: API: query returns whether the molecule falls strictly under 2 µM in GI50. Query: COC(=O)C=Cc1ccc(O)c(O)c1 [Compound 2]
Found: not fulfilled

Lookup: API: query returns whether the molecule falls strictly under 2 µM in GI50. Query: CCCOC(=O)C=Cc1ccc(O)c(O)c1 [Compound 5]
Found: fulfilled

Lookup: API: query returns whether the molecule falls strictly under 2 µM in GI50. Query: O=C(C=Cc1ccc(O)c(O)c1)N1CCC(Cc2ccccc2)CC1 [Compound 19]
Found: not fulfilled

Lookup: API: query returns whether the molecule falls strictly under 2 µM in GI50. Query: CC(C)OC(=O)C=Cc1ccc(O)c(O)c1 [Compound 6]
Found: fulfilled
